# Test system: K562
# Method description: Antiproliferative activity against human K562 cells after 48 hrs by MTT assay
# Type: functional, cell-based
# Study conditions: K562, 48 h
Entries and their IC50
Lab book: enter the figure in µM, no units written.

Solved cases below.
Prompt: Fill in the blank: the reported IC50 of `COc1cc(NS(=O)(=O)c2ccccc2)c2cc1Oc1ccc(cc1)C[C@H]1c3cc(c(OC)cc3CCN1C)Oc1c(OC)c(OC)cc3c1[C@H](C2)N(C)CC3` is ____.
Completion: 3.07

Prompt: Fill in the blank: the reported IC50 of `COc1cc(NS(=O)(=O)c2cccc([N+](=O)[O-])c2)c2cc1Oc1ccc(cc1)C[C@H]1c3cc(c(OC)cc3CCN1C)Oc1c(OC)c(OC)cc3c1[C@H](C2)N(C)CC3` is ____.
Completion: 1.78

Prompt: Fill in the blank: the reported IC50 of `CCCCS(=O)(=O)Nc1cc(OC)c2cc1C[C@H]1c3c(cc(OC)c(OC)c3Oc3cc4c(cc3OC)CCN(C)[C@H]4Cc3ccc(cc3)O2)CCN1C` is ____.
Completion: 7.26

Prompt: Fill in the blank: the reported IC50 of `COc1cc(NS(C)(=O)=O)c2cc1Oc1ccc(cc1)C[C@H]1c3cc(c(OC)cc3CCN1C)Oc1c(OC)c(OC)cc3c1[C@H](C2)N(C)CC3` is ____.
Completion: 3.57

Prompt: Fill in the blank: the reported IC50 of `COc1cc(NS(=O)(=O)c2ccc(C(C)(C)C)cc2)c2cc1Oc1ccc(cc1)C[C@H]1c3cc(c(OC)cc3CCN1C)Oc1c(OC)c(OC)cc3c1[C@H](C2)N(C)CC3` is ____.
Completion: 3.19

Prompt: Fill in the blank: the reported IC50 of `COc1cc(NS(=O)(=O)c2ccc(C(F)(F)F)cc2)c2cc1Oc1ccc(cc1)C[C@H]1c3cc(c(OC)cc3CCN1C)Oc1c(OC)c(OC)cc3c1[C@H](C2)N(C)CC3` is ____.
Completion: 3.61

Prompt: Fill in the blank: the reported IC50 of `COc1cc(N)c2cc1Oc1ccc(cc1)C[C@H]1c3cc(c(OC)cc3CCN1C)Oc1c(OC)c(OC)cc3c1[C@H](C2)N(C)CC3` is ____.
Completion: 3

Prompt: Fill in the blank: the reported IC50 of `COc1ccc2cc1Oc1ccc(cc1)C[C@H]1c3cc(c(OC)cc3CCN1C)Oc1c(OC)c(OC)cc3c1[C@H](C2)N(C)CC3` is ____.
Completion: 11.8

Prompt: Fill in the blank: the reported IC50 of `COc1cc(NS(=O)(=O)C(F)(F)F)c2cc1Oc1ccc(cc1)C[C@H]1c3cc(c(OC)cc3CCN1C)Oc1c(OC)c(OC)cc3c1[C@H](C2)N(C)CC3` is ____.
Completion: 7.12

Prompt: Fill in the blank: the reported IC50 of `COc1cccc(S(=O)(=O)Nc2cc(OC)c3cc2C[C@H]2c4c(cc(OC)c(OC)c4Oc4cc5c(cc4OC)CCN(C)[C@H]5Cc4ccc(cc4)O3)CCN2C)c1` is ____.
Completion: 3.22

Next:
Prompt: Fill in the blank: the reported IC50 of `COc1cc(NS(=O)(=O)c2c(C)cc(C)cc2C)c2cc1Oc1ccc(cc1)C[C@H]1c3cc(c(OC)cc3CCN1C)Oc1c(OC)c(OC)cc3c1[C@H](C2)N(C)CC3` is ____.
Completion: 3.24

Prompt: Fill in the blank: the reported IC50 of `COc1cc(NS(=O)(=O)c2ccc(Br)cc2)c2cc1Oc1ccc(cc1)C[C@H]1c3cc(c(OC)cc3CCN1C)Oc1c(OC)c(OC)cc3c1[C@H](C2)N(C)CC3` is ____.
Completion: 3.72

Prompt: Fill in the blank: the reported IC50 of `COc1cc(NS(=O)(=O)c2ccccc2Cl)c2cc1Oc1ccc(cc1)C[C@H]1c3cc(c(OC)cc3CCN1C)Oc1c(OC)c(OC)cc3c1[C@H](C2)N(C)CC3` is ____.
Completion: 3.57

Prompt: Fill in the blank: the reported IC50 of `COc1cc(NS(=O)(=O)c2ccccc2[N+](=O)[O-])c2cc1Oc1ccc(cc1)C[C@H]1c3cc(c(OC)cc3CCN1C)Oc1c(OC)c(OC)cc3c1[C@H](C2)N(C)CC3` is ____.
Completion: 5.05

Prompt: Fill in the blank: the reported IC50 of `CCCS(=O)(=O)Nc1cc(OC)c2cc1C[C@H]1c3c(cc(OC)c(OC)c3Oc3cc4c(cc3OC)CCN(C)[C@H]4Cc3ccc(cc3)O2)CCN1C` is ____.
Completion: 4.14

Prompt: Fill in the blank: the reported IC50 of `COc1cc(NS(=O)(=O)c2c(C(C)C)cc(C(C)C)cc2C(C)C)c2cc1Oc1ccc(cc1)C[C@H]1c3cc(c(OC)cc3CCN1C)Oc1c(OC)c(OC)cc3c1[C@H](C2)N(C)CC3` is ____.
Completion: 6.76

Prompt: Fill in the blank: the reported IC50 of `CC[C@]1(O)C[C@H]2CN(CCc3c([nH]c4ccccc34)[C@@](C(=O)OC)(c3cc4c(cc3OC)N(C=O)[C@H]3[C@@](O)(C(=O)OC)[C@H](OC(C)=O)[C@]5(CC)C=CCN6CC[C@]43[C@@H]65)C2)C1` is ____.
Completion: 5.36
